Ratio values for the compounds below.
# system_under_test: Adenosine receptors; A1 & A3 (Homo sapiens) (UniProt P30542+P0DMS8)
# Sequence (P30542 whole entry, looked up, one chain of several): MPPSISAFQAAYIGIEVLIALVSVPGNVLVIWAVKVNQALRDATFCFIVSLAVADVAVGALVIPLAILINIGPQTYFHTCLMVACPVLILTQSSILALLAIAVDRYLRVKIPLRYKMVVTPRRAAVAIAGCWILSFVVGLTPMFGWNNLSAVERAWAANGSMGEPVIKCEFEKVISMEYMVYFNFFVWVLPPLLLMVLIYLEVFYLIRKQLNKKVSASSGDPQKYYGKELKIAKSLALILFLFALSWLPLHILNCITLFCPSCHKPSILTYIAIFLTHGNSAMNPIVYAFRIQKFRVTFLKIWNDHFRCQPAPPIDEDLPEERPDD
# test_protocol: Ratio of binding affinity for Adenosine A1 and Adenosine A3 receptors
# Assay type: protein assay
Keep it simple and answer with nothing but the number.

Look over these answered cases.
compound | measured
CCNC(=O)[C@H]1OC(n2cnc3c(NC(=O)Nc4ccc(S(=O)(=O)NC5CCCC5)cc4)ncnc32)C(O)C1O (single isomer, unassigned) | 17.3
CCCN(CCC)S(=O)(=O)c1ccc(NC(=O)Nc2ncnc3c2ncn3C2O[C@H](C(=O)NCC)C(O)C2O)cc1 (single isomer, unassigned) | 25

Ratio for CCNC(=O)[C@H]1OC(n2cnc3c(NC(=O)Nc4ccc(S(=O)(=O)N5CCOCC5)cc4)ncnc32)C(O)C1O (single isomer, unassigned) ?
36.2

Ratio for C=CCN(CC=C)S(=O)(=O)c1ccc(NC(=O)Nc2ncnc3c2ncn3C2O[C@H](C(=O)NCC)C(O)C2O)cc1 (single isomer, unassigned) ?
38

Ratio for CCNC(=O)[C@H]1OC(n2cnc3c(NC(=O)Nc4ccc(S(=O)(=O)NC56CC7CC(CC(C7)C5)C6)cc4)ncnc32)C(O)C1O (single isomer, unassigned) ?
7.5

Ratio for CCNC(=O)[C@H]1OC(n2cnc3c(NC(=O)Nc4ccc(S(=O)(=O)NC(C)(C)C)cc4)ncnc32)C(O)C1O (single isomer, unassigned) ?
12.5

====

pIC50 values for the compounds below.
# system_under_test: Adenosine receptor A3 (Homo sapiens, UniProt P0DMS8)
# Sequence (P0DMS8 whole entry): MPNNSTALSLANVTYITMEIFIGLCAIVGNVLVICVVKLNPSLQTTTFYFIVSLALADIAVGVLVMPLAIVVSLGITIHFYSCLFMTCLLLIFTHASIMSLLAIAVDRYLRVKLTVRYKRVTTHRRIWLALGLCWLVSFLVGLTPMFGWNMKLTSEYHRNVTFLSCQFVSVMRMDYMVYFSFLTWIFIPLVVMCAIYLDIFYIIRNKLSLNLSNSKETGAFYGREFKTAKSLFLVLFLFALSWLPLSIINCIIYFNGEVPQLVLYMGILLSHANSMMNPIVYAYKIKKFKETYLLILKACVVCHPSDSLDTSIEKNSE
# test_protocol: Inhibition of (10 uM) forskolin-mediated cAMP production in CHO cells expressing human Adenosine A3 receptor
The meaning of pIC50 here: minus log10 of the concentration in molar units.

Look over these answered cases.
compound | measured
C=CCN(CC=C)S(=O)(=O)c1ccc(NC(=O)Nc2ncnc3c2ncn3C2O[C@H](C(=O)NCC)C(O)C2O)cc1 (single isomer, unassigned) | 7.19
CCNC(=O)[C@H]1O[C@@H](n2cnc3c(NC(=O)Nc4ccc(S(N)(=O)=O)cc4)ncnc32)C(O)C1O (single isomer, unassigned) | 7.09

Please tell me: pIC50 of C=CCN(C)S(=O)(=O)c1ccc(NC(=O)Nc2ncnc3c2ncn3C2O[C@H](C(=O)NCC)C(O)C2O)cc1 (single isomer, unassigned) , system Adenosine receptor A3 (Homo sapiens, UniProt P0DMS8)?
7.38

====

# system_under_test: UniProtKB P29274
# Sequence (P29274 whole entry): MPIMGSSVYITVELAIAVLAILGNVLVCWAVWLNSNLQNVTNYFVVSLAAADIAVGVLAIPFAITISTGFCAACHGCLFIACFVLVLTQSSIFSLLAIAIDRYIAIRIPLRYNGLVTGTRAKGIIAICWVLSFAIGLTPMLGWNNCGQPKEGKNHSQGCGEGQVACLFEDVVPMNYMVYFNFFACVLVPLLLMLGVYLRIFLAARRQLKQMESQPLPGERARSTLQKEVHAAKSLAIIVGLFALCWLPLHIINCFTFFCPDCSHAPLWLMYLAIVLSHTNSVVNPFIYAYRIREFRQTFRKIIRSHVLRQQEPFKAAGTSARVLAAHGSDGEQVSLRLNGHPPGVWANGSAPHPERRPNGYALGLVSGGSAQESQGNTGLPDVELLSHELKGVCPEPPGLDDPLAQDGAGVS
# test_protocol: Inhibition of [3H]CGS-21680 binding to Adenosine A2A receptor expressed in CHO cells
# Assay type: cell-based
# Design: concentration or dose not given beside the values
# condition_parameters: concentration not given here
endpoint_label: inhibition (%)
# number only, unit % dropped from output

molecule | system_under_test | unit_symbol | inhibition
CCNC(=O)[C@H]1OC(n2cnc3c(NC(=O)Nc4ccc(S(=O)(=O)NCC)cc4)ncnc32)C(O)C1O (single isomer, unassigned) | UniProtKB P29274 | % | 34
CCNC(=O)[C@H]1OC(n2cnc3c(NC(=O)Nc4ccc(S(=O)(=O)N(C)C(C)C)cc4)ncnc32)C(O)C1O (single isomer, unassigned) | UniProtKB P29274 | % | 13
CCNC(=O)[C@H]1OC(n2cnc3c(NC(=O)Nc4ccc(S(=O)(=O)N(CCCl)CCCl)cc4)ncnc32)C(O)C1O (single isomer, unassigned) | UniProtKB P29274 | % | 27
CCNC(=O)[C@H]1OC(n2cnc3c(NC(=O)Nc4ccc(S(=O)(=O)N5CCCCC5)cc4)ncnc32)C(O)C1O (single isomer, unassigned) | UniProtKB P29274 | % | 15
C=CCN(CC=C)S(=O)(=O)c1ccc(NC(=O)Nc2ncnc3c2ncn3C2O[C@H](C(=O)NCC)C(O)C2O)cc1 (single isomer, unassigned) | UniProtKB P29274 | % | 15
CCNC(=O)[C@H]1OC(n2cnc3c(NC(=O)Nc4ccc(S(=O)(=O)NC56CC7CC(CC(C7)C5)C6)cc4)ncnc32)C(O)C1O (single isomer, unassigned) | UniProtKB P29274 | % | 31
CCCNS(=O)(=O)c1ccc(NC(=O)Nc2ncnc3c2ncn3C2O[C@H](C(=O)NCC)C(O)C2O)cc1 (single isomer, unassigned) | UniProtKB P29274 | % | 31

inhibition for C=CCN(C)S(=O)(=O)c1ccc(NC(=O)Nc2ncnc3c2ncn3C2O[C@H](C(=O)NCC)C(O)C2O)cc1 (single isomer, unassigned) ?
10
